Target: endogenous FAAH in Neuro2a lysates (Mus musculus)
Sequence (O08914 1-579): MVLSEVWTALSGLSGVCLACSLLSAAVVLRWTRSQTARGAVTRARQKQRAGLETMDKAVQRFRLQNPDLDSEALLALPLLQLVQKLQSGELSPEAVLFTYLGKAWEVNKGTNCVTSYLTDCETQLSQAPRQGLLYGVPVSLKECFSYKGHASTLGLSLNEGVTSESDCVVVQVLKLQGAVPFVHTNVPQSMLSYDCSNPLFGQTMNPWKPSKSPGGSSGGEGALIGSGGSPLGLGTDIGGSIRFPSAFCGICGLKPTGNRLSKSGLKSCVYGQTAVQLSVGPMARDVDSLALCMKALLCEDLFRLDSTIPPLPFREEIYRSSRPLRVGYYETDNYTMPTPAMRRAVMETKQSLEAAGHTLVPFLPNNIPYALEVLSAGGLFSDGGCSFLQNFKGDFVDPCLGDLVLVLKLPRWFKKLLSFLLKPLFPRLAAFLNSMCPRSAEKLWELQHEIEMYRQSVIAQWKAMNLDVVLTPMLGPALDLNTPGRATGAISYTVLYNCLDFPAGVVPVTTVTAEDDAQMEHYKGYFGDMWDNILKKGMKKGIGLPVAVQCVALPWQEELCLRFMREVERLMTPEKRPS
Test: Inhibition of endogenous FAAH in Neuro2a lysates
Details: read-out: IC50 against endogenous FAAH in Neuro2a lysates
Listing of recorded IC50 by entry.
QUANTITY_NAME: IC50

| COMPOUND | OBSERVED_MEASUREMENT |
| --- | --- |
| CN1CCN(C(=O)c2[nH]c3ccc([N+](=O)[O-])cc3c2-c2ccccc2)CC1 [MJN228] | > 100 µM |
| CN1CCN(C(=O)c2c(-c3ccccc3)c3cc([N+](=O)[O-])ccc3n2C)CC1 [KML110] | > 100 µM |

* * *

Test system: purified recombinant FAAH
Assay: Inhibition of purified recombinant FAAH
Assay type: biochemical
Details: read-out: IC50 against purified recombinant FAAH
pIC50: −log10 of the molar value.

| MOLECULE | pIC50 |
| --- | --- |
| CN1CCN(C(=O)c2[nH]c3ccc([N+](=O)[O-])cc3c2-c2ccccc2)CC1 [MJN228] | < 4.00 |
| CN1CCN(C(=O)c2c(-c3ccccc3)c3cc([N+](=O)[O-])ccc3n2C)CC1 [KML110] | < 4.00 |

Recorded values, source paper PMC4615699.
